- Measured target: human JAK1 kinase domain (JH1) (Homo sapiens, UniProt P23458)
- Construct: recombinantly generated catalytic kinase (also known as JH1) domain of human JAK1, JAK2, JAK3 and TYK2
- Sequence (P23458 875-1153 limits assumed): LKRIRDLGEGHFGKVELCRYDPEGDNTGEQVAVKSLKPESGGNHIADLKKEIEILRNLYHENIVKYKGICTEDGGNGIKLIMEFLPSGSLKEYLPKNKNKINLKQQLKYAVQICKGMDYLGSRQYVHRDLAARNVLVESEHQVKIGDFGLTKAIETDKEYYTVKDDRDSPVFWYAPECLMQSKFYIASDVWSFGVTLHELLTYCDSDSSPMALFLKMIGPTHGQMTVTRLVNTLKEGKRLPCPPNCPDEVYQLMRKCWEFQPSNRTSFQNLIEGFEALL
- Protocol details: JH1 biochemical assay for JAK1 (ADP-Glo kinase assay, recombinant JH1 catalytic domain, JAK3-342 peptide, 35 μM ATP)
- Particulars: JH1 kinase domain, ADP-Glo
pIC50: −log10 of the molar value.
pIC50 values, listed per item

Example entries and their recorded answers appear below.
Molecule	pIC50
COc1cc(-c2cc3c(N4C[C@@H](C)[C@@](C#N)(C5CC5)C4=O)ccnn3c2)ccn1 [Example 65]	6.00 to 7.00
C[C@@H]1CN(c2ccnn3cc(-c4cnc5[nH]ccc5c4)cc23)C(=O)[C@]1(C#N)C1CC1 [Example 64]	6.00 to 7.00
C[C@@H]1CN(c2ccnn3cc(-c4cncc(OC(F)F)c4)cc23)C(=O)[C@]1(C#N)C1CC1 [Example 177]	6.00 to 7.00

Would you kindly look at the next entry?
Q: Report pIC50 for C[C@@H]1CN(c2nc(-c3ccc(C#N)nc3)cn3nccc23)C(=O)[C@]1(C#N)C1CC1 [Example 195] tested on human JAK1 kinase domain (JH1) (Homo sapiens, UniProt P23458).
A: > 7.00

====

- Measured target: human TYK2 kinase domain (JH1) (Homo sapiens)
- Construct: recombinantly generated catalytic kinase (also known as JH1) domain of human JAK1, JAK2, JAK3 and TYK2
- Sequence (P29597 897-1176 limits assumed): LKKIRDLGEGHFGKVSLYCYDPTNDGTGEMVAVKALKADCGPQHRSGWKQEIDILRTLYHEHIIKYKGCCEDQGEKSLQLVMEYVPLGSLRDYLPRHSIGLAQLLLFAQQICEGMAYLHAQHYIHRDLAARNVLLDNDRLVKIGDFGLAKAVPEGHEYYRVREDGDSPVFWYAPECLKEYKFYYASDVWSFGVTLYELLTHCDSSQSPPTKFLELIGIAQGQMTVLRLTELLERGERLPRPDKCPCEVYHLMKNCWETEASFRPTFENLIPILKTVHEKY
- Protocol details: JH1 biochemical assay for TYK2 (ADP-Glo kinase assay, recombinant JH1 catalytic domain, JAK3-974 peptide, 10 μM ATP)
- Particulars: JH1 kinase domain, ADP-Glo
Where a name gives a salt, the structure may show the parent alone.
IC50 values, listed per item

Compound	Reading
C[C@@H]1CN(c2ccnn3cc(-c4nc5ccccn5n4)cc23)C(=O)[C@]1(C#N)C1CC1 [Example 108, trifluoroacetate]	50 to 100 nM
C[C@@H]1CN(c2ccnn3cc(-c4cnccn4)cc23)C(=O)[C@]1(C#N)C1CC1 [Example 151, trifluoroacetate]	50 to 100 nM
C[C@@H]1CN(c2ccnn3cc(-c4ccc(CO)cn4)cc23)C(=O)[C@]1(C#N)C1CC1 [Example 150, trifluoroacetate]	5 to 20 nM
C[C@@H]1CN(c2nc(-c3cnn(C4CCOCC4)c3)cn3nccc23)C(=O)[C@]1(C#N)C1CC1 [Example 203]	< 5 nM

Q: Bench note: what IC50 did C[C@@H]1CN(c2ccnn3cc(-c4cncnc4)cc23)C(=O)[C@]1(C#N)C1CC1 [Example 92] show?
A: 50 to 100 nM

Q: Bench note: what IC50 did COc1ncc(-c2cc3c(N4C[C@@H](C)[C@@](C#N)(C5CC5)C4=O)ccnn3c2)cn1 [Example 76] show?
A: 50 to 100 nM

Q: Bench note: what IC50 did C[C@@H]1CN(c2nccn3nc(-c4cnn(C)c4)cc23)C(=O)[C@]1(C#N)C1CC1 [Example 216] show?
A: > 100 nM

Q: Bench note: what IC50 did COc1cnc(-c2cc3c(N4C[C@@H](C)[C@@](C#N)(C5CC5)C4=O)ccnn3c2)nc1 [Example 136, trifluoroacetate] show?
A: 50 to 100 nM

Q: Bench note: what IC50 did Cn1cc(-c2cc3c(N4CC[C@@](C#N)(C5CC5)C4=O)ccnn3c2)cn1 [Example 9] show?
A: 5 to 20 nM

Q: Bench note: what IC50 did C[C@@H]1CN(c2ccnn3c(F)c(-c4cnn(C)c4)nc23)C(=O)[C@]1(C#N)C1CC1 [Example 183] show?
A: > 100 nM

Q: Bench note: what IC50 did C[C@@H]1CN(c2ccnn3cc(-c4cnn(-c5ccncc5)c4)cc23)C(=O)[C@]1(C#N)C1CC1 [Example 160] show?
A: < 5 nM

====

- Measured target: human JAK3 kinase domain (JH1) (Homo sapiens)
- Construct: recombinantly generated catalytic kinase (also known as JH1) domain of human JAK1, JAK2, JAK3 and TYK2
- Protocol details: JH1 biochemical assay for JAK3 (ADP-Glo kinase assay, recombinant JH1 catalytic domain, JAK3-974 peptide, 4 μM ATP)
- Particulars: JAK3 JH1, ADP-Glo
pIC50: −log10 of the molar value. Structures can show the parent of a compound that is named as a salt.
pIC50 values, listed per item

Molecule	Reading
C[C@@H]1CN(c2nc(-c3cnn([C@H]4C[C@@](C)(C#N)C4)c3)cn3ncc(F)c23)C(=O)[C@]1(C#N)C1CC1	> 7.00
COc1cc(-c2cn3nccc3c(N3C[C@@H](C)[C@@](C#N)(C4CC4)C3=O)n2)c(OC)nn1 [Example 253, trifluoroacetate]	5.00 to 5.30

Would you kindly look at the next entry?
Q: Bench note: what pIC50 did C[C@@H]1CN(c2cc(-c3cnn(C)c3)cc3nscc23)C(=O)[C@]1(C#N)C1CC1 show?
A: 6.00 to 7.00

====

- Measured target: human TYK2 kinase domain (JH1) (Homo sapiens, UniProt P29597)
- Construct: recombinantly generated catalytic kinase (also known as JH1) domain of human JAK1, JAK2, JAK3 and TYK2
- Protocol details: JH1 biochemical assay for TYK2 (ADP-Glo kinase assay, recombinant JH1 catalytic domain, JAK3-974 peptide, 10 μM ATP)
- Particulars: JH1 kinase domain, ADP-Glo
Where a name gives a salt, the structure may show the parent alone.
Recorded metric: IC50

Example entries and their recorded answers appear below.
Molecule	IC50
Cn1cc(-c2cc3c(N4CC[C@@](C#N)(C5CCC5)C4=O)ccnn3c2)cn1 (single isomer, unassigned)	> 0.1 µM
C[C@@H]1CN(c2ccnn3cc(-c4cnn([C@@H]5CC5(F)F)c4)cc23)C(=O)[C@]1(C#N)C1CC1 (single isomer, unassigned)	< 0.005 µM
C[C@@H]1CN(c2ccnn3cc(-c4cncc(O)c4)cc23)C(=O)[C@]1(C#N)C1CC1	0.005 to 0.02 µM

Would you kindly look at the next entry?
Q: Bench note: what IC50 did C[C@@H]1CN(c2ccnn3cc(-c4cnn(C)n4)cc23)C(=O)[C@]1(C#N)C1CC1 [Example 99, trifluoroacetate] show?
A: 0.02 to 0.05 µM

====

- Measured target: human JAK3 kinase domain (JH1) (Homo sapiens, UniProt P52333)
- Construct: recombinantly generated catalytic kinase (also known as JH1) domain of human JAK1, JAK2, JAK3 and TYK2
- Sequence (P52333 822-1111 limits assumed): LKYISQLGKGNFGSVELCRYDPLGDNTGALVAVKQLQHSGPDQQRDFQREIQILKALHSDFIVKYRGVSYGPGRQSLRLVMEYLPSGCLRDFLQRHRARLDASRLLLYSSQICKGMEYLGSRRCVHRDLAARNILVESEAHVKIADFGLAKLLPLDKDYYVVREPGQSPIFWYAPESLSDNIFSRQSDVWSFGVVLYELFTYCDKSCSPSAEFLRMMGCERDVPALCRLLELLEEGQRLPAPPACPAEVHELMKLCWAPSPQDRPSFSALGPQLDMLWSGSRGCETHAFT
- Protocol details: JH1 biochemical assay for JAK3 (ADP-Glo kinase assay, recombinant JH1 catalytic domain, JAK3-974 peptide, 4 μM ATP)
- Particulars: JH1 kinase domain, ADP-Glo
pIC50: −log10 of the molar value.
Recorded metric: pIC50

Example entries and their recorded answers appear below.
Molecule	Measured target	Recorded metric	Reading
C[C@@H]1CN(c2nccn3nc(-c4cnn(C)c4)cc23)C(=O)[C@]1(C#N)C1CC1 [Example 216]	human JAK3 kinase domain (JH1) (Homo sapiens, UniProt P52333)	pIC50	< 5.00
C[C@@H]1CN(c2ccnn3cc(-c4ccc5cnn(C)c5c4)cc23)C(=O)[C@]1(C#N)C1CC1 [Example 68]	human JAK3 kinase domain (JH1) (Homo sapiens, UniProt P52333)	pIC50	6.00 to 7.00
CCn1cc(-c2cn3nccc3c(N3C[C@@H](C)[C@@](C#N)(C4CC4)C3=O)n2)cn1 [Example 202]	human JAK3 kinase domain (JH1) (Homo sapiens, UniProt P52333)	pIC50	> 7.00
C[C@@H]1CN(c2ccnn3cc(-c4ccc5nccn5c4)cc23)C(=O)[C@]1(C#N)C1CC1 [Example 88]	human JAK3 kinase domain (JH1) (Homo sapiens, UniProt P52333)	pIC50	6.00 to 7.00
COc1cc(-c2cc3c(N4CC[C@@](C#N)(C5CC5)C4=O)ccnc3[nH]2)ccn1 [Example 3]	human JAK3 kinase domain (JH1) (Homo sapiens, UniProt P52333)	pIC50	> 7.00

Q: Report pIC50 for C[C@@H]1CN(c2nc(-c3cnc4c(c3)CCC(=O)N4)cn3nccc23)C(=O)[C@]1(C#N)C1CC1 [Example 204] tested on human JAK3 kinase domain (JH1) (Homo sapiens, UniProt P52333).
A: > 7.00

Q: Report pIC50 for C[C@@H]1CN(c2ccnn3cc(-c4cnn(C5CCCCC5)c4)cc23)C(=O)[C@]1(C#N)C1CC1 [Example 169] tested on human JAK3 kinase domain (JH1) (Homo sapiens, UniProt P52333).
A: > 7.00

Q: Report pIC50 for C[C@@H]1CN(c2ccnn3cc(-c4ccn(C)n4)cc23)C(=O)[C@]1(C#N)C1CC1 [Example 63] tested on human JAK3 kinase domain (JH1) (Homo sapiens, UniProt P52333).
A: 6.00 to 7.00
